target: IL-17A(FLAG-Tagged): IL-17RA(His-Tagged) binding (Homo sapiens, UniProt Q16552, K93Q); assay: IL-17A(FLAG-tagged):IL-17RA(His-tagged) binding disruption Eu-HTRF assay, Protocol 2; conditions: FLAG-IL-17A 1 nM; average if tested more than once
Sequence (Q16552 with tags, fused parts or gaps K93Q): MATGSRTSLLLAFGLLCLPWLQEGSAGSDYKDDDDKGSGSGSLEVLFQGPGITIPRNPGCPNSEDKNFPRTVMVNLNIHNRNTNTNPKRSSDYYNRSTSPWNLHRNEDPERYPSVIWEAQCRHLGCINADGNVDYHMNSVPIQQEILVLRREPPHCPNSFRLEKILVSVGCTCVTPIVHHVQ
Can you tell me IC50 for the items I'm about to list?

Query block: Would you kindly share the measured IC50 for CC(C)(CC[C@H](NC(=O)c1nonc1C1CC1)c1cn2ncc(CN3C[C@@H]4[C@H](CNC3=O)C4(F)F)cc2n1)C(F)(F)F (relative stereo) ?
Result block: < 50 nM

Query block: Would you kindly share the measured IC50 for COC[C@H](c1cnn2cc([C@@H](NC(=O)c3nonc3C3CC3)[C@@H](C)OC3(C(F)(F)F)CC3)nc2c1)N1CC(F)(F)CNC1=O (relative stereo) ?
Result block: < 50 nM

Query block: Would you kindly share the measured IC50 for COC[C@H](c1cnn2cc([C@@H](NC(=O)c3nonc3C3CC3)[C@H](C)OC3CC3)nc2c1)N1CC(F)(F)CNC1=O (relative stereo) ?
Result block: > 100 nM

Query block: Would you kindly share the measured IC50 for [2H]C1([2H])NC(=O)N([C@H](COC2CC2)c2cnn3cc([C@@H](NC(=O)c4ccnn4C(C)C)C4CCC(F)(F)CC4)nc3c2)C([2H])([2H])C1(F)F ?
Result block: < 50 nM

Query block: Would you kindly share the measured IC50 for Cc1nonc1C(=O)N[C@H](c1cn2ncc([C@@H](COC3CC3)N3CC(F)(F)CNC3=O)cc2n1)C1CCC(F)(F)CC1 ?
Result block: < 50 nM

Query block: Would you kindly share the measured IC50 for COC[C@H](c1cnn2cc([C@@H](NC(=O)c3nonc3C3CC3)C3CCC(F)(F)CC3)nc2c1)N1CC(F)(F)CNC1=O ?
Result block: < 50 nM
